Cited source for all entries: paper PMC12096829

In this section, each of the compounds is paired with its reported Tm.
- measured-target: Athe_2574 (Anaerocellum bescii)
- Sequence (A0ABY1S640 entry or part of it): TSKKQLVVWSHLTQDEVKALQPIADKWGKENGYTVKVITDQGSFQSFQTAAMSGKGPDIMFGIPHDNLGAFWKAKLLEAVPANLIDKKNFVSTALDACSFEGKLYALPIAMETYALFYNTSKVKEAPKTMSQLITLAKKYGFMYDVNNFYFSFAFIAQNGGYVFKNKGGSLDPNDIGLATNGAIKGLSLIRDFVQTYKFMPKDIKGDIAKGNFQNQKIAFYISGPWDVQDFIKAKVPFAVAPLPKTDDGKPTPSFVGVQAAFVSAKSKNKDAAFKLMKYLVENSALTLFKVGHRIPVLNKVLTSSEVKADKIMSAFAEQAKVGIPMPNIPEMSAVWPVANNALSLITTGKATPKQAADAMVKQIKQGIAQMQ
- experimental-protocol: DSC thermal shift of Athe_2574 with ɑ-glucan substrates
- Assay type: binding
- measurement-setup: Athe_2574 + sugar; 2.5 mg/mL protein, 5 mM sugar; 50 mM HEPES, 300 mM NaCl pH 7.0

{"compound": "OC[C@H]1O[C@H](O[C@H]2[C@H](O)[C@@H](O)[C@@H](O[C@H]3[C@H](O)[C@@H](O)[C@@H](O[C@H]4[C@H](O)[C@@H](O)[C@@H](O[C@H]5[C@H](O)[C@@H](O)[C@@H](O[C@H]6[C@H](O)[C@@H](O)[C@@H](O[C@H]7[C@H](O)[C@@H](O)C(O)O[C@@H]7CO)O[C@@H]6CO)O[C@@H]5CO)O[C@@H]4CO)O[C@@H]3CO)O[C@@H]2CO)[C@H](O)[C@@H](O)[C@@H]1O (some centres unmarked)", "measured-target": "Athe_2574 (Anaerocellum bescii)", "Tm / °C": 105.04}
{"compound": "OC[C@H]1O[C@H](O[C@H]2[C@H](O)[C@@H](O)[C@@H](O[C@H]3[C@H](O)[C@@H](O)[C@@H](O[C@H]4[C@H](O)[C@@H](O)[C@@H](O[C@H]5[C@H](O)[C@@H](O)C(O)O[C@@H]5CO)O[C@@H]4CO)O[C@@H]3CO)O[C@@H]2CO)[C@H](O)[C@@H](O)[C@@H]1O (some centres unmarked)", "measured-target": "Athe_2574 (Anaerocellum bescii)", "Tm / °C": 104.93}
